# SYSTEM_TESTED: T1, histidine-tagged human SORT1 (R&D Systems) (human, UniProt Q99523 78-755)
# T1 construct: Bought recombinant protein; also called His-tagged human SORT1; not shown: histidine tag
# T1 sequence: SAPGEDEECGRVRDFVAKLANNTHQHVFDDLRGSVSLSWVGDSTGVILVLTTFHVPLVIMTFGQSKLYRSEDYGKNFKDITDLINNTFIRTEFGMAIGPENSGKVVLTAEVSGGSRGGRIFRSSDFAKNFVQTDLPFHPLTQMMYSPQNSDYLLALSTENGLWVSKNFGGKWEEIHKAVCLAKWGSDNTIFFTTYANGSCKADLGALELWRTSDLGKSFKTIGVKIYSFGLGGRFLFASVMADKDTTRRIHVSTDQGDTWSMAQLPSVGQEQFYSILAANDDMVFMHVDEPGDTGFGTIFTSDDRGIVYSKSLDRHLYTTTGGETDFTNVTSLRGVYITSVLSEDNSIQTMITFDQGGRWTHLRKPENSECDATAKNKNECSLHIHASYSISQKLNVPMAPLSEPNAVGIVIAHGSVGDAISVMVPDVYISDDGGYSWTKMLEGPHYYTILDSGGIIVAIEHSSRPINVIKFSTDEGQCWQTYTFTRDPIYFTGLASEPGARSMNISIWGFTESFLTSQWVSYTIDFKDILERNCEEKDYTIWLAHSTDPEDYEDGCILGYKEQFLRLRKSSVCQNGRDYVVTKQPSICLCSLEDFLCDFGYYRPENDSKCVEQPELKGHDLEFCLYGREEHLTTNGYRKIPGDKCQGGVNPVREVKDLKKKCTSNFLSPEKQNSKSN
# ASSAY_PROTOCOL: BLI (Octet RED96), antibody captured on anti-human IgG Fc sensor, 20 nM His-tagged human SORT1, 1:1 fit
Listing of recorded koff by entry.
Express your answer in s⁻¹, writing the number without its unit.

Examples with answers:
| BINDER | DISPLAY_UNIT | koff |
| --- | --- | --- |
| S-60-15.3 [N33G] (antibody, human IgG1, kappa, L234A L235A, V domains shown, huIgG1 LALAPS) VH: QVQLQESGPGLVKPSETLSLTCAVSGYSISSGYYWGWIRQPPGKGLEWIGTIYHSGSTYYNPSLKSRVTISVDTSKNQFSLKLSSVTAADTAVYYCARQGSIKQGYYGMDVWGQGTTVTVSS VL: DIVMTQSPLSLPVTPGEPASISCRSSQSLLRSGGYNYLDWYLQKPGQSPQLLIYLGSNRASGVPDRFSGSGSGTDFTLKISRAEAEDVGVYYCMQQQEAPLTFGGGTKVEIKR | s⁻¹ | 0.000411 |
| S-60-15.8 [N33Q] (antibody, human IgG1, kappa, L234A L235A, V domains shown, huIgG1 LALAPS) VH: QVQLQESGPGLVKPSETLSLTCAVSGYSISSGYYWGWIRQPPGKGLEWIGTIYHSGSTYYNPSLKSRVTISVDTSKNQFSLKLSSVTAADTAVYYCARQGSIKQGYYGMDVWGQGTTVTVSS VL: DIVMTQSPLSLPVTPGEPASISCRSSQSLLRSQGYNYLDWYLQKPGQSPQLLIYLGSNRASGVPDRFSGSGSGTDFTLKISRAEAEDVGVYYCMQQQEAPLTFGGGTKVEIKR | s⁻¹ | 0.000653 |

Consider the additional binder presented here.
Sample S-60-15.2 [N33S] (antibody, human IgG1, kappa, L234A L235A, V domains shown, huIgG1 LALAPS) VH: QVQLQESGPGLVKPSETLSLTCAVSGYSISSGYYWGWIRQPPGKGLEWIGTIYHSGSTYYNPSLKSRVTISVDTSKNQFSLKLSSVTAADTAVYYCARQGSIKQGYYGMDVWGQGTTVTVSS VL: DIVMTQSPLSLPVTPGEPASISCRSSQSLLRSSGYNYLDWYLQKPGQSPQLLIYLGSNRASGVPDRFSGSGSGTDFTLKISRAEAEDVGVYYCMQQQEAPLTFGGGTKVEIKR — what was its koff?
0.000247
